Listed here are molecules together with their documented growth inhibition.
assay: NCI Yeast Anticancer Drug Screen. Data for the bub3 strain (AID 167); details: S. cerevisiae bub3 mutant strain, at 50.0 µM (retest, dose inferred, filed as 5.0), stronger effect = higher value
This is part of a sample that, as a whole, favours compounds with a hit. Of some 79,000 tested, about 15% had one in any assay.
All answers are understood in %, so give the number only.

## Input Fill in the blank: the reported growth inhibition of Cc1ccc(NCCNCCO)c2c(=O)c3ccccc3sc12 is ____.
## Output 99

## Input Fill in the blank: the reported growth inhibition of CCOC(=O)/C=C(/Cl)C(=O)OCC is ____.
## Output 99

## Input Fill in the blank: the reported growth inhibition of Cc1ccc(S(=O)(=O)N/N=C/c2cc(I)cc([N+](=O)[O-])c2O)cc1 is ____.
## Output 97

## Input Fill in the blank: the reported growth inhibition of CCCCCCCCCCCC(=O)OCCCCC is ____.
## Output -4

## Input Fill in the blank: the reported growth inhibition of CC(C)(C)CC(C)(C)c1ccc(O)c(Cl)c1 is ____.
## Output 90

## Input Fill in the blank: the reported growth inhibition of ClCc1c(-c2ccccc2)oc(-c2ccccc2)c1CCl is ____.
## Output 40

## Input Fill in the blank: the reported growth inhibition of Oc1ccc2c(c1)Cc1cc(Br)ccc1-2 is ____.
## Output 99

## Input Fill in the blank: the reported growth inhibition of O=C1C=CC(=O)C2C3C=CC(CC3)C12 (configuration not stated) is ____.
## Output 23

## Input Fill in the blank: the reported growth inhibition of CCCCCCCCCCCCCCCCNCCCCCCCC(=O)O is ____.
## Output 73
